These entries and their values trace back to patent US5834459A.

# Target Of Assay: human D4 receptor (D4.2 sub-type) (Homo sapiens, UniProt P21917, DEL265-296)
# Construct: cell homogenate
# Sequence (P21917 with tags, fused parts or gaps DEL265-296): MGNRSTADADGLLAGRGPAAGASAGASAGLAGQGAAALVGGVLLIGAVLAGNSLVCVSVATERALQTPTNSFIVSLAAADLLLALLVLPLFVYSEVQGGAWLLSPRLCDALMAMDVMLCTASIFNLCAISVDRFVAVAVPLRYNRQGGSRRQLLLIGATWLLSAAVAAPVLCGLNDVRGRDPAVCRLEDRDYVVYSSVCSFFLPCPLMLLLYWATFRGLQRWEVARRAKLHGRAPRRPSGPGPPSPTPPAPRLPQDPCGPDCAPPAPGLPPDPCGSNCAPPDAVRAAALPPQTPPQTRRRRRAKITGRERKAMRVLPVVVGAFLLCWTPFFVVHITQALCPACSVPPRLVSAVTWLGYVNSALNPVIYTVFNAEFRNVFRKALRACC
# Protocol: Receptor Binding Assay: displacement of 3H-spiperone, D4 receptor
# Test Context: 3H-spiperone displacement, HEK 298 cells transfected with human D4.2; read-out: Ki (D4 affinity)
Label YES when Ki is strictly below 30 nM; otherwise label NO.

Illustrative cases are given below, each with its answer.
# Compound Structure, Group
data = [
    ("CCCCCCN1CCN(C2=Nc3ccccc3Oc3ccccc32)CC1", "YES"),
    ("CCCCCCCCCN1CCN(C2=Nc3cc(Cl)ccc3Oc3ccccc32)CC1", "YES"),
    ("CCCCCCN1CCN(C2=Nc3ccccc3Oc3c(Cl)cccc32)CC1", "NO"),
    ("CCCCCCCCCN1CCN(C2=Nc3ccccc3Oc3ccccc32)CC1", "NO"),
]

Note: attention shifts to another entry.
Is 30 nM strictly greater than the compound's reported Ki? compound: CCCCCCCCCN1CCN(C2=Nc3ccccc3Oc3c(Cl)cccc32)CC1 NO

* * *

For each of the compounds below, state its D2/D4 (selectivity).
# Target Of Assay: human D2 receptor (short isoform) (Homo sapiens, UniProt P14416)
# Sequence (P14416 with tags, fused parts or gaps DEL242-270): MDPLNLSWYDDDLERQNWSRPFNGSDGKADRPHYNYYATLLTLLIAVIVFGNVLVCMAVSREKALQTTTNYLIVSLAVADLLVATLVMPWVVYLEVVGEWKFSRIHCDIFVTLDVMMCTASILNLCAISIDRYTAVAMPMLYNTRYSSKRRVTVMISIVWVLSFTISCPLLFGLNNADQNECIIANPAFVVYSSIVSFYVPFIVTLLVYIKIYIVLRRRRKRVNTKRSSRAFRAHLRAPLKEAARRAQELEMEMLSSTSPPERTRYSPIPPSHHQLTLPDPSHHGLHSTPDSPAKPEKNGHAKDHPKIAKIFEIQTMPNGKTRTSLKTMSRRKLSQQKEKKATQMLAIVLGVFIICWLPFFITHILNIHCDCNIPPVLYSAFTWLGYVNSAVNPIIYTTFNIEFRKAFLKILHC
# Protocol: Receptor Binding Assay: displacement of 3H-spiperone, D2 receptor, for D2/D4 selectivity
# Test Context: ratio D2/D4; GH4 C1 cells with human D2 short vs HEK 298 cells with human D4.2, 3H-spiperone
Give bare numbers.

Consider the reported D2/D4 (selectivity) for these compounds:
# Compound Structure, D2/D4 (selectivity)
data = [
    ("CCCCCCCCCN1CCN(C2=Nc3ccccc3Oc3c(Cl)cccc32)CC1", 3.9),
    ("CCCCCCN1CCN(C2=Nc3ccccc3Oc3ccccc32)CC1", 20.0),
    ("CCCCCCN1CCN(C2=Nc3ccccc3Oc3c(Cl)cccc32)CC1", 31.8),
    ("CCCCCCCCCN1CCN(C2=Nc3ccccc3Oc3ccccc32)CC1", 3.9),
]

With those in mind, consider the next compound.
For CCCCCCCCCN1CCN(C2=Nc3cc(Cl)ccc3Oc3ccccc32)CC1 , what is its reported D2/D4 (selectivity)? 30.0
